Experiment: LC-MS/MS of 5-MeO-DMT, bufotenine and 5-MIAA in breastmilk, serum and urine of a treated PPD patient; infant dose estimates
Conditions: female, human, urine, inhaled
READOUT: concentration at 24 h (ng/mL)
Answer in ng/mL, number only, no unit symbol.

// concentration at 24 h value for COc1ccc2[nH]cc(CC(=O)O)c2c1 [5-MIAA, 5-methoxyindole-3-acetic acid] : 18.6

---

Assay: LC-MS/MS of 5-MeO-DMT, bufotenine and 5-MIAA in breastmilk, serum and urine of a treated PPD patient; infant dose estimates
Conditions: female, human, breast milk, inhaled
READOUT: concentration at 24 h (ng/mL)
Answer in ng/mL, number only, no unit symbol.

// concentration at 24 h value for COc1ccc2[nH]cc(CC(=O)O)c2c1 [5-MIAA, 5-methoxyindole-3-acetic acid] : 0.0355

---

Assay: LC-MS/MS of 5-MeO-DMT, bufotenine and 5-MIAA in breastmilk, serum and urine of a treated PPD patient; infant dose estimates
Conditions: female, human, urine, inhaled
READOUT: concentration at 8.5 h
Answer format: number, then unit.

// concentration at 8.5 h value for COc1ccc2[nH]cc(CC(=O)O)c2c1 [5-MIAA, 5-methoxyindole-3-acetic acid] : 292 ng/mL

---

Test: LC-MS/MS of 5-MeO-DMT, bufotenine and 5-MIAA in breastmilk, serum and urine of a treated PPD patient; infant dose estimates
Conditions: female, human, serum, inhaled
READOUT: concentration at 24 h (ng/mL)
Answer in ng/mL, number only, no unit symbol.

// concentration at 24 h value for COc1ccc2[nH]cc(CC(=O)O)c2c1 : 0.271

---

Experiment: LC-MS/MS of 5-MeO-DMT, bufotenine and 5-MIAA in breastmilk, serum and urine of a treated PPD patient; infant dose estimates
Details: female, human, serum, inhaled
READOUT: concentration at 120 h (ng/mL)
Answer in ng/mL, number only, no unit symbol.

// concentration at 120 h value for COc1ccc2[nH]cc(CC(=O)O)c2c1 [5-MIAA, 5-methoxyindole-3-acetic acid] : 0.0671

---

Assay: LC-MS/MS of 5-MeO-DMT, bufotenine and 5-MIAA in breastmilk, serum and urine of a treated PPD patient; infant dose estimates
Details: female, human, urine, inhaled
READOUT: concentration at 120 h (ng/mL)
Answer in ng/mL, number only, no unit symbol.

// concentration at 120 h value for COc1ccc2[nH]cc(CC(=O)O)c2c1 : 9.44

---

System: human hepatocytes
Test: Metabolism of 5-MeO-DMT in human hepatocytes in suspension
Assay type: in vitro ADME
Settings: 5-MeO-DMT free base 10 μM incubated up to 120 minutes
READOUT: Relative Proportion of compounds identified (%)
Answer in %, number only, no unit symbol.

The cases that follow already have their Relative Proportion of compounds identified on record.
| MOLECULE | EXPERIMENTAL_SYSTEM | RESULT |
| --- | --- | --- |
| CN(C)CCc1c[nH]c2ccc(O)cc12 | human hepatocytes | 5 |
| COc1ccc2[nH]cc(CCO)c2c1 | human hepatocytes | 25 |

// returns Relative Proportion of compounds identified for COc1ccc2[nH]cc(CC[N+](C)(C)[O-])c2c1 [5-MeO-DMT-N-oxide] with human hepatocytes; value = 1
